- measurement.target: NNA
- measurement.notes: BIAcore
measure: pKd
Scale for pKd: -log10 of concentration given in mol/L; no unit attached.

# pKd of LY6G6D (other) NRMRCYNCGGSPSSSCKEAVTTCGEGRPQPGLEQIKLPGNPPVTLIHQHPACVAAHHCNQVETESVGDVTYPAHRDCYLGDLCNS = 9.59
